Overview of reported IC50 across a group of compounds:
# protocol_description: Inhibition of binding of biotinylated mouse BIM BH3-26mer peptide to GST-tagged mouse BCL-Xl delta C25 mutant by AlphaScreen/[…] assay
measured_metric: IC50

In [3]: df
Out[3]:
                                    compound  data_value
 0  CCCN(C(=O)N[C@@H](CSCC(C)C)C(=O)O)C(=O)c1cccc(C#Cc2ccncc2)c1    > 150 µM
 1  CC(C)N(C(=O)N[C@@H](CSCc1ccccc1)C(=O)O)C(=O)c1cccc(-c2ccccc2)c1    > 150 µM
 2  CCCN(C(=O)N[C@@H](CSCc1ccccc1)C(=O)O)C(=O)c1cccc(-c2ccc(Cl)cc2)c1       86 µM
 3  CCCN(C(=O)N[C@@H](CSCc1ccccc1)C(=O)O)C(=O)c1cccc(-c2ccc3ccccc3c2)c1       63 µM
 4  CCCN(C(=O)N[C@@H](CSCC(C)C)C(=O)O)C(=O)c1cccc(C#Cc2ccc(C(C)(C)C)cc2)c1    > 150 µM
 5  CCCN(C(=O)N[C@@H](CSCc1ccccc1)C(=O)O)C(=O)c1cccc(-c2ccccc2)c1      109 µM
 6     CCCN(C(=O)NC)C(=O)c1cccc(-c2ccccc2)c1    > 150 µM
 7  CCCN(C(=O)N[C@@H](CSCc1ccccc1)C(=O)O)C(=O)c1cccc(-c2ccc(C)cc2)c1       77 µM
 8  CCCN(C(=O)N[C@@H](CSCC(C)C)C(=O)O)C(=O)c1cccc(C#Cc2cccc(C)c2)c1       51 µM
 9  CCCN(C(=O)N[C@@H](CSCc1ccccc1-c1ccccc1)C(=O)O)C(=O)c1cccc(C#Cc2ccccc2)c1      146 µM
10  CCCN(C(=O)NCCSCc1ccccc1)C(=O)c1cccc(-c2ccccc2)c1    > 150 µM
11  CCCN(C(=O)N[C@@H](CSCc1ccc(OC)cc1)C(=O)O)C(=O)c1cccc(C#Cc2ccccc2)c1       21 µM
12  CCCN(C(=O)N[C@@H](CSCc1ccccc1)C(=O)O)C(=O)c1cccc(-c2cccc3ccccc23)c1       62 µM
13  CCCN(C(=O)N[C@@H](CC(C)C)C(=O)O)C(=O)c1cccc(-c2ccccc2)c1    > 150 µM
14  CCCN(C(=O)N[C@@H](CSCc1ccccc1)C(=O)O)C(=O)c1cccc(-c2ccc(OC)cc2)c1    > 150 µM
15  CCCN(C(=O)N[C@@H](Cc1ccc(O)cc1)C(=O)O)C(=O)c1cccc(-c2ccccc2)c1    > 150 µM
16  CCC(C)N(C(=O)N[C@@H](CSCc1ccccc1)C(=O)O)C(=O)c1cccc(-c2ccccc2)c1 (stereo partly drawn)    > 150 µM
17  CCCN(C(=O)N[C@@H](CSCc1ccccc1)C(=O)O)C(=O)c1cccc(-c2ccccc2Cl)c1      102 µM
18  CCCN(C(=O)N[C@@H](CSCC(C)C)C(=O)O)C(=O)c1cccc(C#Cc2ccccc2C)c1       57 µM
19  CCCN(C(=O)N[C@@H](CSCc1ccccc1)C(=O)O)C(=O)c1cccc(Cc2ccccc2)c1    > 150 µM
20  CCCSC[C@H](NC(=O)N(CCC)C(=O)c1cccc(C#Cc2ccccc2)c1)C(=O)O       21 µM
21  CCCN(C(=O)N[C@@H](CSCC(C)C)C(=O)O)C(=O)c1cccc(C#Cc2ccccc2)c1       15 µM
22  CCN(C(=O)N[C@@H](CSCc1ccccc1)C(=O)O)C(=O)c1cccc(-c2ccccc2)c1      128 µM
23  O=C(O)[C@H](CSCc1ccccc1)NC(=O)N(Cc1ccccc1)C(=O)c1cccc(-c2ccccc2)c1    > 150 µM
24  CCCN(C(=O)N[C@@H](CSCc1ccccc1)C(N)=O)C(=O)c1cccc(-c2ccccc2)c1    > 150 µM
25  CCCN(C(=O)N[C@@H](CSCc1ccccc1)C(=O)O)C(=O)c1cccc(C#Cc2ccccc2)c1       35 µM
26  CCCN(C(=O)N[C@@H](CSCC(C)C)C(=O)O)C(=O)c1cccc(C#Cc2ccc(C)cc2)c1       50 µM
27  CCCN(C(=O)N[C@@H](Cc1ccccc1)C(=O)O)C(=O)c1cccc(-c2ccccc2)c1    > 150 µM
28  CCCN(C(=O)N[C@@H](CSCC(C)C)C(=O)O)C(=O)c1cccc(C#Cc2ccc(F)cc2)c1        9 µM
29  CCCN(C(=O)N[C@@H](CSCc1ccccc1)C(=O)O)C(=O)c1cccc(CCc2ccccc2)c1       55 µM
30  CCCN(C(=O)N[C@@H](CSCC1CCCCC1)C(=O)O)C(=O)c1cccc(C#Cc2ccccc2)c1       42 µM
31  CCCN(C(=O)N[C@@H](CSc1ccccc1)C(=O)O)C(=O)c1cccc(C#Cc2ccccc2)c1       25 µM
32  CCCN(C(=O)N[C@@H](CSCC(C)C)C(=O)O)C(=O)c1cccc(C#Cc2cccnc2)c1    > 150 µM

Numbers sourced from ChEMBL document CHEMBL3124762.
